Tested on: Mycobacterium tuberculosis
Assay: Cornell - Phenotypic assay to identify agents that inhibit growth of Mycobacterium tuberculosis
Type: functional
Parameters: scale not given: direction of the effect not stated beside the values
Conditions: 10 mM as filed; unlikely as a test dose
Hit rate of the full screen: of about 53,000 compounds, about 900 (1.7%) showed an effect of 50% or more. For the sample, strong results were picked, then their nearest neighbours and some compounds at random.
REPORTED_METRIC: Percent Effect (%)
Express it in %; write the number only.

Take a look at these entries with their results.
CN(Cc1ccc2c(c1)OCO2)C(=O)c1ccc(C2CCCNC2)cc1 (centres undefined) : 14.52
O=C(c1c(F)cccc1F)N1CCC[C@@H]1Cn1c(=O)oc2ccccc21 : 34.56
Cc1cccc(CN2CCC3(CCN(Cc4ccccn4)C3)C2=O)c1.O=C(O)C(F)(F)F.O=C(O)C(F)(F)F (centres undefined) : 1.967

Prompt: Could you share which Percent Effect value was measured for COc1ccc(OC)c(C2CCN(CC(C)(C)N3CCOCC3)C2)c1 (centres undefined) ?
Response: -53.82
